Biological target: HIV-1 protease (Human immunodeficiency virus type 1 group M subtype B)
Construct: use of the fluorometric, HIV-1 protease assay
Test: Protease inhibition assay (fluorometric)
PROPERTY MEASURED: EC50

HIV-1 protease (Human immunodeficiency virus type 1 group M subtype B) / EC50 / NC(=S)Nc1nsc(-c2ccccc2)n1 : value?
> 423 µM
